molecular target: Sentrin-specific protease 8 (Homo sapiens) (UniProt Q96LD8); assay: SENP8 protease inhibitors, retest, confirmation, biochemical, luminescence, single concentration (AID 488912); conditions: Recombinant SENP8, Z-RLRGG-aminoluciferin luminescence, 60 min; at 12.5 µM; stronger effect = higher value
Sequence (Q96LD8 whole entry, looked up): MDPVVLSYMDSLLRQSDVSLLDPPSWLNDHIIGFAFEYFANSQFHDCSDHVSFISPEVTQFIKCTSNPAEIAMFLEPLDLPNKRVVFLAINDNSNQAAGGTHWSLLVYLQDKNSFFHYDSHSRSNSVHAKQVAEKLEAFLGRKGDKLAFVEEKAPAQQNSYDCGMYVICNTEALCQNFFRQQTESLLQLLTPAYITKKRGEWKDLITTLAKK
This is one part of the list. Activity calls are given as the source filed them.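 Rule for the calls: active = mean inhibition across replicates above about 50% (limit read from the data); inactive = the rest.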
property: inhibition

Q. Sample `COc1ccc(-c2cc3ccc(OCc4nn[nH]n4)cc3oc2=O)cc1` — what was its inhibition?
A. 64% (active)

Q. Sample `CCOC(=O)c1sc(NC(=O)c2ccncc2)nc1C` — what was its inhibition?
A. 0.5% (inactive)

Q. Sample `Cc1cccc(Nc2nc(-c3ccccc3)cs2)n1` — what was its inhibition?
A. -7.1% (inactive)

###

assay: inhibitors of PAF-induced NFkB signaling in CF airway cells, dose response, cell-based, uHTS hits, panel, cytotoxicity readout (AID 624344); conditions: CF bronchial epithelial cells, PAF-induced NFkB reporter inhibition, with PAF, run 2; at 79 µM (top of the series) unless noted
# maps each entry to its inhibition

c1ccc2c(c1)Nc1ccncc1S2: 106%
COc1ccc(-c2cc(C(F)(F)F)nc(S(=O)(=O)CCCC(=O)Nc3cccnc3Cl)n2)cc1OC: 99.1%
O=C1C(=Cc2ccccc2[N+](=O)[O-])Cc2ccccc21: 106%
CNc1ccc2ncc(-c3cccc(C(=O)N(C)C)c3)n2n1: 106%
Cc1c(-c2ccccc2)oc2c(C(=O)N3CCN(c4ccc([N+](=O)[O-])cc4)CC3)cccc2c1=O: 93.8%
CCOC(=O)c1c(C)[nH]c(C(=O)N/N=C/c2ccc(Br)cc2)c1C: 83.1%

Q. Sample `Cc1cccc2sc(N(CCCN(C)C)C(=O)CCS(=O)(=O)c3ccccc3)nc12` — what was its inhibition?
A. 102%

Q. Sample `CN1CCC(OC(=O)c2cc3cc(Cl)cc(Cl)c3oc2=O)CC1` — what was its inhibition?
A. 97.8%

Q. Sample `COc1ccc(Nc2nc(-c3ccccc3)nc3ccccc23)cc1S(=O)(=O)N1CCOCC1` — what was its inhibition?
A. 106%

Q. Sample `O=C(Nc1ccc2ccccc2c1)c1ccccc1O` — what was its inhibition?
A. 90.4%

###

experiment: inhibition of Brca1/Bard1 split-luciferase complementation, confirmation, counter-screen for Mdm2/MdmX interaction inhibitor project, luminescence, single concentration (AID 504668); conditions: Brca1/Bard1 bimolecular luciferase complementation counterscreen, at 8 µM, stronger effect = higher value
Activity calls are given as the source filed them. How the calls were made is not given here.
property: inhibition

O=C(NNC(=O)c1ccccc1OCc1ccccc1)c1ccccc1O: 34.8% (active)
Cn1cccc1-c1cc(C(=O)N/N=C/c2cc(Br)ccc2O)[nH]n1: 25.9% (active)
COc1ccc2[nH]c3c(N4CCC(O)(c5cccc(C(F)(F)F)c5)CC4)ncnc3c2c1: 32.1% (active)
C/C(=N\NC(=O)c1ccc(Cl)c(Cl)c1)c1ccccn1: 25.9% (active)
COc1cc(/C=C2\SC(=Nc3ccc(O)cc3)NC2=O)cc(OC)c1OC: 28.2% (active)
CSc1nc2nccc(/C=C\c3ccccc3)n2n1: 23.7% (active)
COc1ccccc1-c1cc(C(F)(F)F)nc(S(=O)(=O)CCCC(=O)NC(C)C)n1: 31.4% (active)
O=C1[C@H]2[C@@H](c3ccc(F)cc3)N3C(=O)N(c4ccc(Br)cc4)C(=O)[C@@]3(Cc3ccccc3)[C@H]2C(=O)N1C1CCCCC1: 26.6% (active)
Cc1ccsc1C(=O)OCC(=O)c1cc(C)n(CC2CCCO2)c1C (stereo not given): 28.9% (active)

Q. Sample `CN1CCN(C(=O)CCCN2C(=O)/C(=C/c3ccccc3)SC2=S)CC1` — what was its inhibition?
A. 30.5% (active)
